Test system: RSV
Test: Binding of RSV to solid phase phospholipid
Parameters: species or system human RSV A2 strain
Conditions: 0.625 nmol lipid, 37° C., 1 hour

Compound	binding of solid phase lipid to RSV
CCCCCC=CCC=CCCCCCCCC(=O)OCC(COP(=O)(O)OCC(O)C(O)C(O)CO)OC(=O)CCCCCCCC=CCC=CCCCCC (mixture of isomers)	only bind weakly
CCCCCCC=CCCCCCCCC(=O)OCC(COP(=O)(O)OCC(O)C(O)C(O)CO)OC(=O)CCCCCCCC=CCCCCCC (mixture of isomers)	only bind weakly

====

Target: TLR 9 (Mus musculus)
Construct: RAW264.7 cells secrete TNF-α in response to the TLR9 agonist CpG; endogenous in cells; host or cells: RAW264.7 (ATCC)
Experiment: CpG-induced TNFα secretion by RAW264.7 cells (TLR 9 antagonism)
Assay type: cell-based
Details: 5 μg/mL CpG, 100 μg/mL phospholipid, 5.5 hours
Experimental Endpoint: antagonism of TLR 9 activation (TNFα secretion)

Molecule	Observed
CCCCCCCCCCCCCCOC[C@H](COP(=O)(O)OCC(O)C(O)C(O)CO)OCCCCCCCCCCCCCC (mixture of isomers)	not affected
CCCCCCCC/C=C\CCCCCCCC(=O)O[C@H](COC(=O)CCCCCCCCCCCCCCC)COP(=O)([O-])OCC[N+](C)(C)C [POPC, reference compound]	not affected

====

Tested on: RSV
Experiment: Binding of RSV to solid phase phospholipid
Parameters: species or system human RSV A2 strain
Settings: 0.625 nmol lipid, 37° C., 1 hour
Experimental Endpoint: binding of solid phase lipid to RSV

Molecule	Observed
CCCCCCCCCCCCCCCCCC(=O)OCC(COP(=O)(O)OCC(O)C(O)C(O)CO)OC(=O)CCCCCCCCCCCCCCCCC (stereo not drawn)	bound strongly
CCCCCCCCCCCCCC(=O)OC[C@H](COP(=O)(O)OCC(O)C(O)C(O)CO)OC(=O)CCCCCCCCCCCCC (mixture of isomers)	bound strongly

====

Target: TLR 4 (Mus musculus, UniProt Q9JHF9+Q9QUK6)
Construct: endogenous in cells; host or cells: RAW264.7 (ATCC)
Sequence (Q9QUK6 26-835): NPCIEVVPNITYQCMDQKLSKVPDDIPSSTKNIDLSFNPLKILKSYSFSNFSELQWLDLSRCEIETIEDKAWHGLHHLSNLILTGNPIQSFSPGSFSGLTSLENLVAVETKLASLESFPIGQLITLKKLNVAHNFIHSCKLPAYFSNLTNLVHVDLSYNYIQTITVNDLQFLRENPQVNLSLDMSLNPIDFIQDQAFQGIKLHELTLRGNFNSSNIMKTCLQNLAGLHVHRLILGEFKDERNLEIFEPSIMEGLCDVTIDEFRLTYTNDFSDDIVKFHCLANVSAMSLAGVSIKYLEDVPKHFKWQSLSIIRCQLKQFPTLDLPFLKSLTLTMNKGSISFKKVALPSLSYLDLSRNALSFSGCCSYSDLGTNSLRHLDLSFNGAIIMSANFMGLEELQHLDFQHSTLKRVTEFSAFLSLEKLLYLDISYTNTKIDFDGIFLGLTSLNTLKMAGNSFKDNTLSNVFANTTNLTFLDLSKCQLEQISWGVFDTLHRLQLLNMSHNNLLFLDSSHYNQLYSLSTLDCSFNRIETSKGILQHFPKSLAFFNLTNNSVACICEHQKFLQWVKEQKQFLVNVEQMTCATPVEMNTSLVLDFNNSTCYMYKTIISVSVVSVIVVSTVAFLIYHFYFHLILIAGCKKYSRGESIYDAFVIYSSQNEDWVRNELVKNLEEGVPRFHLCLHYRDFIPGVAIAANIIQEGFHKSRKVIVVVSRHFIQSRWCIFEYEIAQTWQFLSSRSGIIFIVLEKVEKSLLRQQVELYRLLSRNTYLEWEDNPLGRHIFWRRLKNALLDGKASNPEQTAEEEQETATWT
Sequence (Q9JHF9 19-160): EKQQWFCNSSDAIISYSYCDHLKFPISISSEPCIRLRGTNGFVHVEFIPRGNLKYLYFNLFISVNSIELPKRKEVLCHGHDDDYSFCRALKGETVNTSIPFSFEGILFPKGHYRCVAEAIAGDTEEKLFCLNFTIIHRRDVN
Test: LPS-induced TNF-α secretion by RAW264.7 cells (TLR 4 antagonism)
Format: cell-based
Conditions: RAW264.7, 10 ng/mL LPS, 4 hours, lipid 100 to 0.008 μg/mL

Compound	Target Or Test System	IC50 values (inhibition of TNFα release) [µg/mL]
CCCCCCCCC=CCCCCCCCC(=O)OCC(COP(=O)(O)OCC(O)C(O)C(O)CO)OC(=O)CCCCCCCC=CCCCCCCCC (mixture of isomers)	TLR 4 (Mus musculus, UniProt Q9JHF9+Q9QUK6)	0.36
CCCCCCC=CCCCCCCCC(=O)OCC(COP(=O)(O)OCC(O)C(O)C(O)CO)OC(=O)CCCCCCCC=CCCCCCC (mixture of isomers)	TLR 4 (Mus musculus, UniProt Q9JHF9+Q9QUK6)	1
CCCCCC=CCC=CCCCCCCCC(=O)OCC(COP(=O)(O)OCC(O)C(O)C(O)CO)OC(=O)CCCCCCCC=CCC=CCCCCC (mixture of isomers)	TLR 4 (Mus musculus, UniProt Q9JHF9+Q9QUK6)	0.28

====

Target: TLR 2/1 (Mus musculus, UniProt Q9EPQ1+Q9QUN7)
Construct: endogenous in cells; host or cells: RAW264.7 (ATCC)
Sequence (Q9QUN7 25-784): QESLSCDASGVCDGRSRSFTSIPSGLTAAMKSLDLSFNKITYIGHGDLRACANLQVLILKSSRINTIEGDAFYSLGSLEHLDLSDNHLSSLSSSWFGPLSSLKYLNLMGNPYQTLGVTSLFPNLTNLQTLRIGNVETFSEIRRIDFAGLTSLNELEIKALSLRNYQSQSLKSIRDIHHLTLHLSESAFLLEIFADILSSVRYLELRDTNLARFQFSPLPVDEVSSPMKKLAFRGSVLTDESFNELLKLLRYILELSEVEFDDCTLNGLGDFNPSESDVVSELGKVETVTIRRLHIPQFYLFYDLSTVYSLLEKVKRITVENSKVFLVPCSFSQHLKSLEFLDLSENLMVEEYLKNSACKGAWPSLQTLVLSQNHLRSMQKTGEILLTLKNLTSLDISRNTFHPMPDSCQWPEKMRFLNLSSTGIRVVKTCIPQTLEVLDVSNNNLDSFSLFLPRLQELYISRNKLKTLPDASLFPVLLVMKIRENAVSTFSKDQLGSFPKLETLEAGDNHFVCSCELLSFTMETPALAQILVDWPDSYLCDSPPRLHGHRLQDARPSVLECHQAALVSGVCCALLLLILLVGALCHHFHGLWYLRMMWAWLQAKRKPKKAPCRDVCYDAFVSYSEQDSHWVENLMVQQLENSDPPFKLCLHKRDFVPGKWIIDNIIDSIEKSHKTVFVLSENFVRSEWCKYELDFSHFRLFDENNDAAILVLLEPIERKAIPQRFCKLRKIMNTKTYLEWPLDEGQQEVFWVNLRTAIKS
Sequence (Q9EPQ1 25-795 limits assumed): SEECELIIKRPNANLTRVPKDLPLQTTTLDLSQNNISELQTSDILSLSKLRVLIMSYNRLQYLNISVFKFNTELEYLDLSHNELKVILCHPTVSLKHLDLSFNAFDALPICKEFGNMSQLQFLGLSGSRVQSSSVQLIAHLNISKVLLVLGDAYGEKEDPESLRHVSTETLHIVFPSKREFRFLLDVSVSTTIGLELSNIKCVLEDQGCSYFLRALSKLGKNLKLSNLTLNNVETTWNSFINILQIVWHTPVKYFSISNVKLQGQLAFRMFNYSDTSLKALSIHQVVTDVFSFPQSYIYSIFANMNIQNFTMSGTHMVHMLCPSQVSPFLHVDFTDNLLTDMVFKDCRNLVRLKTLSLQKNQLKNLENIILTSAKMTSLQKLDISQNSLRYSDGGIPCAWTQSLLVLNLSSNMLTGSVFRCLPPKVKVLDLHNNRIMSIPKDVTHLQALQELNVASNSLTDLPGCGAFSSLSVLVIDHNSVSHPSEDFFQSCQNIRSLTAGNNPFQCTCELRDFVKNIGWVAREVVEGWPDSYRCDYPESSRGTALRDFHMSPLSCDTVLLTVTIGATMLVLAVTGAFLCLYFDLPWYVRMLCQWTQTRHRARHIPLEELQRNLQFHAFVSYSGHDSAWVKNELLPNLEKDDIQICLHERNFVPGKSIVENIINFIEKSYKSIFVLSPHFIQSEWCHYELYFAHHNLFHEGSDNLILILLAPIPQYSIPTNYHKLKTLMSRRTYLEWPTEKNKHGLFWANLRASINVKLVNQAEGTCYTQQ
Experiment: Pam3Cys-induced TNFα release by RAW264.7 cells (TLR 2/1 antagonism)
Format: cell-based
Conditions: Pam3Cys, 100 μg/mL lipid, 4 hours
Experimental Endpoint: suppression of TLR 2/1 activation (TNFα release)

Molecule	Observed
CCCCCC=CCC=CCCCCCCCC(=O)OCC(COP(=O)(O)OCC(O)C(O)C(O)CO)OC(=O)CCCCCCCC=CCC=CCCCCC (mixture of isomers)	modest antagonists
CCCCCCCCCCCCCCOC[C@H](COP(=O)(O)OCC(O)C(O)C(O)CO)OCCCCCCCCCCCCCC (mixture of isomers)	modest antagonists
CCCCCCCCC=CCCCCCCCC(=O)OCC(COP(=O)(O)OCC(O)C(O)C(O)CO)OC(=O)CCCCCCCC=CCCCCCCCC (mixture of isomers)	modest antagonists

====

Biological target: TLR 9 (Mus musculus)
Construct: RAW264.7 cells secrete TNF-α in response to the TLR9 agonist CpG; endogenous in cells; host or cells: RAW264.7 (ATCC)
Sequence (Q9EQU3 26-1032): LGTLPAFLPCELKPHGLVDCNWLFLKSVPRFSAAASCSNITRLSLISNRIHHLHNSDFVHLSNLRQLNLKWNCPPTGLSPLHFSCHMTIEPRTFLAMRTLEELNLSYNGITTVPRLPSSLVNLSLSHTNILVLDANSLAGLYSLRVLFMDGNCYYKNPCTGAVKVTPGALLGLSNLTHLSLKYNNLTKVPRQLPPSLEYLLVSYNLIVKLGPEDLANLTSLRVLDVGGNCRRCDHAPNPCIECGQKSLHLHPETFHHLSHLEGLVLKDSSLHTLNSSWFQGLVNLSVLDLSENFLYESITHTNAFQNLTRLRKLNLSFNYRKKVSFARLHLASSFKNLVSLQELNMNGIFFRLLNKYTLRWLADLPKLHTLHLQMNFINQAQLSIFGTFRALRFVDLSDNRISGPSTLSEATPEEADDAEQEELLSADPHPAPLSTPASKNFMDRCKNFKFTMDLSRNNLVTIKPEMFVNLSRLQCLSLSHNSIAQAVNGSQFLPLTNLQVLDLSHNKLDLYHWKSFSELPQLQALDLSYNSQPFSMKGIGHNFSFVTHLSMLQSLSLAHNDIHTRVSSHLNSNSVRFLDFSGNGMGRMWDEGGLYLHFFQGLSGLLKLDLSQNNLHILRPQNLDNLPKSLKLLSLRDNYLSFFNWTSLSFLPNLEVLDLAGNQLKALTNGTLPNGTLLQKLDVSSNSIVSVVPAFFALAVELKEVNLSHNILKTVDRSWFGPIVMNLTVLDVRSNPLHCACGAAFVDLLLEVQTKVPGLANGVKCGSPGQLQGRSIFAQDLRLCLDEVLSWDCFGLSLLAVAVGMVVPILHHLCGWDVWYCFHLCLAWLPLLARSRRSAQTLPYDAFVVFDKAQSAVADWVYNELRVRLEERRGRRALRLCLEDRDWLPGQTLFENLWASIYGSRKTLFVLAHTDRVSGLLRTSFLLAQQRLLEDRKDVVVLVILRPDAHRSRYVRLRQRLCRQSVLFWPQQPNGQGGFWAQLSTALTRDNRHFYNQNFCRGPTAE
Assay: CpG-induced TNFα secretion by RAW264.7 cells (TLR 9 antagonism)
Type: cell-based
Details: 5 μg/mL CpG, 100 μg/mL phospholipid, 5.5 hours
Experimental Endpoint: antagonism of TLR 9 activation (TNFα secretion)

Compound	Observed
CCCCCCCC/C=C\CCCCCCCC(=O)O[C@H](COC(=O)CCCCCCCCCCCCCCC)COP(=O)(O)OCC(O)CO (stereo partly drawn) [POPG, palmitoyl-oleoyl-phosphatidylglycerol, reference compound]	not affected
CCCCCCCCC=CCCCCCCCCOCC(COP(=O)(O)OCC(O)C(O)C(O)CO)OCCCCCCCCC=CCCCCCCCC (mixture of isomers)	not affected
CCCCCCCCCCCCCCCCCC(=O)OCC(COP(=O)(O)OCC(O)C(O)C(O)CO)OC(=O)CCCCCCCCCCCCCCCCC (stereo not drawn)	not affected
